TEST SUMMARY: Concentration of therapeutic agents in blood and brain tissue in rat following oral administration
Type: in vivo
PARTICULARS: male SD rats, 2-1/3-1 vs vatiquinone/1-1, 4-1/5-1 vs 2-1/3-1
drop in plasma concentration relative to the next larger compound pair: recorded values

Use these answered entries as a reference point.
[[record]]
given_smiles = "CC(C)=CCC/C(C)=C/CC[C@@](C)(O)CCC1=C(C)C(=O)C(C)=C(C)C1=O"
assay_value = "~5 fold"

[[record]]
given_smiles = "CC(C)=CCC/C(C)=C/CC[C@](C)(O)CCC1=C(C)C(=O)C(C)=C(C)C1=O"
assay_value = "~5 fold"

[[record]]
given_smiles = "CC(C)=CCC[C@](C)(O)CCC1=C(C)C(=O)C(C)=C(C)C1=O"
assay_value = "~20 fold"


Problem: Output drop in plasma concentration relative to the next larger compound pair of CC(C)=CCC[C@@](C)(O)CCC1=C(C)C(=O)C(C)=C(C)C1=O
Solution: ~20 fold

====

TEST SUMMARY: Concentration of therapeutic agents in blood and brain tissue in rat following oral administration
Type: in vivo
PARTICULARS: male, Sprague-Dawley, rat, plasma, po, 10 mg/kg, male SD rats, 10 mg/mL solution in sesame oil, EDTA plasma, LC/MS/MS
Documented Cmax across a set of compounds

Solved entries:
[[record]]
compound = "CC(C)=CCC[C@@](C)(O)CCC1=C(C)C(=O)C(C)=C(C)C1=O"
quantity = "Cmax"
assay_value = "5.5 ng/mL"

[[record]]
compound = "CC(C)=CCC/C(C)=C/CC[C@@](C)(O)CCC1=C(C)C(=O)C(C)=C(C)C1=O"
quantity = "Cmax"
assay_value = "~100 ng/mL"

[[record]]
compound = "CC(C)=CCC/C(C)=C/CC/C(C)=C/CC[C@@](C)(O)CCC1=C(C)C(=O)C(C)=C(C)C1=O [vatiquinone, reference compound]"
quantity = "Cmax"
assay_value = "~500 ng/mL"

[[record]]
compound = "CC(C)=CCC/C(C)=C/CC[C@](C)(O)CCC1=C(C)C(=O)C(C)=C(C)C1=O"
quantity = "Cmax"
assay_value = "~100 ng/mL"

[[record]]
compound = "CC(C)=CCC/C(C)=C/CC/C(C)=C/CC[C@](C)(O)CCC1=C(C)C(=O)C(C)=C(C)C1=O"
quantity = "Cmax"
assay_value = "~500 ng/mL"


The record that follows has no Cmax shown yet.
Problem: Give the reported value of Cmax for this record: CC(C)=CCC[C@](C)(O)CCC1=C(C)C(=O)C(C)=C(C)C1=O
Solution: 3.2 ng/mL

====

Entries and their Brain level values follow.
TEST SUMMARY: Concentration of therapeutic agents in blood and brain tissue in rat following oral administration
Type: in vivo
PARTICULARS: male SD rats, 10 mg/mL solution in sesame oil, perfused brain homogenate, LC/MS/MS
Just the number in ng/g, nothing appended.

[[record]]
compound = "CC(C)=CCC[C@](C)(O)CCC1=C(C)C(=O)C(C)=C(C)C1=O [Compound 5-1]"
quantity_unit = "ng/g"
assay_value = 0


Problem: Tell me its Brain level given CC(C)=CCC[C@@](C)(O)CCC1=C(C)C(=O)C(C)=C(C)C1=O [Compound 4-1] as the entry.
Solution: 0

Problem: Quote Brain level reported for CC(C)=CCC/C(C)=C/CC[C@](C)(O)CCC1=C(C)C(=O)C(C)=C(C)C1=O [Compound 3-1] please.
Solution: 22.0

Problem: Query Brain level for CC(C)=CCC/C(C)=C/CC/C(C)=C/CC[C@@](C)(O)CCC1=C(C)C(=O)C(C)=C(C)C1=O [vatiquinone, reference compound]
Solution: 20.8

Problem: Please report Brain level for the following compound: CC(C)=CCC/C(C)=C/CC/C(C)=C/CC[C@](C)(O)CCC1=C(C)C(=O)C(C)=C(C)C1=O [Compound 1-1]
Solution: 8.3

Problem: Find the measured Brain level of CC(C)=CCC/C(C)=C/CC[C@@](C)(O)CCC1=C(C)C(=O)C(C)=C(C)C1=O [Compound 2-1] and report it.
Solution: 24.5

====

Tested on: frataxin deficient fibroblasts (Friedreich's ataxia patient fibroblast cell line GM03665)
TEST SUMMARY: Frataxin deficient fibroblast viability assay (the BSO Assay)
Format: cell-based, human
PARTICULARS: Homo sapiens, Fibroblast; FA patient fibroblasts pretreated with drug 250 nM down to 6.125 nM the day before BSO 10 mM; MTT 48 hrs later
QUANTITY: pEC50
Scale explanation: pEC50 corresponds to minus log10 of a concentration expressed in moles per litre.

[[record]]
molecule = "CC(C)=CCC/C(C)=C/CC/C(C)=C/CC[C@@](C)(O)CCC1=C(C)C(=O)C(C)=C(C)C1=O [vatiquinone, reference compound]"
system_tested = "frataxin deficient fibroblasts (Friedreich's ataxia patient fibroblast cell line GM03665)"
assay_value = 7.39

[[record]]
molecule = "CC(C)=CCC/C(C)=C/CC[C@@](C)(O)CCC1=C(C)C(=O)C(C)=C(C)C1=O"
system_tested = "frataxin deficient fibroblasts (Friedreich's ataxia patient fibroblast cell line GM03665)"
assay_value = 6.85

[[record]]
molecule = "CC(C)=CCC[C@](C)(O)CCC1=C(C)C(=O)C(C)=C(C)C1=O"
system_tested = "frataxin deficient fibroblasts (Friedreich's ataxia patient fibroblast cell line GM03665)"
assay_value = 7.41

[[record]]
molecule = "CC(C)=CCC/C(C)=C/CC[C@](C)(O)CCC1=C(C)C(=O)C(C)=C(C)C1=O"
system_tested = "frataxin deficient fibroblasts (Friedreich's ataxia patient fibroblast cell line GM03665)"
assay_value = 7.39

[[record]]
molecule = "CC(C)=CCC/C(C)=C/CC/C(C)=C/CC[C@](C)(O)CCC1=C(C)C(=O)C(C)=C(C)C1=O"
system_tested = "frataxin deficient fibroblasts (Friedreich's ataxia patient fibroblast cell line GM03665)"
assay_value = 7.78


Now look at this one.
Problem: // Input: CC(C)=CCC[C@@](C)(O)CCC1=C(C)C(=O)C(C)=C(C)C1=O . Output its pEC50 only.
Solution: 7.04
